target: Nucleic Acid; assay: Dissociation constant for binding to mitochondrial 12S rRNA construct M2 was determined; type: nucleic-acid assay, Homo sapiens
endpoint: pKd
FYI, pKd means -log10 of a concentration in mol per litre.

• NC[C@@H]1O[C@H](O[C@H]2[C@@H](O)[C@H](O[C@@H]3[C@@H](O)[C@H](N)C[C@H](N)[C@H]3O[C@H]3O[C@H](CO)[C@@H](O)[C@H](O)[C@H]3N)O[C@@H]2CO)[C@H](N)[C@@H](O)[C@@H]1O [PAROMOMYCIN] = 5.42

For the next question, use this compound.
Give a short answer stating reported pKd for NC[C@H]1O[C@H](O[C@H]2[C@H](O)[C@@H](O[C@H]3O[C@H](CO)[C@@H](O)[C@H](N)[C@H]3O)[C@H](N)C[C@@H]2N)[C@H](O)[C@@H](O)[C@@H]1O [KANAMYCIN] .
5.46

###

molecular target: Nucleic Acid; assay: Dissociation constant for binding to mitochondrial 12S rRNA construct M5 was determined; format: nucleic-acid assay, Homo sapiens
Parameter log10 Kd: see the listing below.
Recorded Kd (log10, µM)

Solved cases (4 shown):
* CN(C)c1ccc2c(-c3ccc(C(=O)NCC4O[C@H](O[C@@H]5C(O)[C@H](O[C@@H]6C(O)[C@H](N)CC(N)[C@H]6O[C@H]6OC(CO)[C@@H](O)[C@H](O)C6N)O[C@@H]5CO)[C@H](N)C(O)[C@@H]4O)cc3C(=O)[O-])c3ccc(=[N+](C)C)cc-3oc2c1 (stereo not given in full) | -0.48
* NC[C@@H]1O[C@H](O[C@H]2[C@@H](O)[C@H](O[C@@H]3[C@@H](O)[C@H](N)C[C@H](N)[C@H]3O[C@H]3O[C@H](CO)[C@@H](O)[C@H](O)[C@H]3N)O[C@@H]2CO)[C@H](N)[C@@H](O)[C@@H]1O [PAROMOMYCIN] | 0.77
* NC[C@H]1O[C@H](O[C@H]2[C@H](O)[C@@H](O[C@H]3O[C@H](CO)[C@@H](O)[C@H](N)[C@H]3O)[C@H](N)C[C@@H]2N)[C@H](O)[C@@H](O)[C@@H]1O [KANAMYCIN] | 0.42
* NC[C@@H]1O[C@H](O[C@H]2[C@@H](O)[C@H](O[C@@H]3[C@@H](O)[C@H](N)C[C@H](N)[C@H]3O[C@H]3O[C@H](CN)[C@@H](O)[C@H](O)[C@H]3N)O[C@@H]2CO)[C@H](N)[C@@H](O)[C@@H]1O [FRAMYCETIN] | 0.60

Kindly consider the entry below.
System Nucleic Acid. Read-out log10 Kd. Item NC[C@H]1O[C@H](O[C@H]2[C@H](O)[C@@H](O[C@H]3O[C@H](CO)[C@@H](O)[C@H](N)[C@H]3O)[C@H](N)C[C@@H]2N)[C@H](N)C[C@@H]1O [TOBRAMYCIN] . Report value.
0.73

###

Let's look at some compounds and their measured pKd.
target: Nucleic Acid; experiment: Dissociation constant for binding to mitochondrial 12S rRNA construct M2 was determined; format: nucleic-acid assay, Homo sapiens
Entry type: numeric. Quantity: pKd, the -log10 of concentration in molar units.

Example cases with answers are listed next.
• NC[C@@H]1O[C@H](O[C@H]2[C@@H](O)[C@H](O[C@@H]3[C@@H](O)[C@H](N)C[C@H](N)[C@H]3O[C@H]3O[C@H](CN)[C@@H](O)[C@H](O)[C@H]3N)O[C@@H]2CO)[C@H](N)[C@@H](O)[C@@H]1O [FRAMYCETIN] = 6.85
• CN(C)c1ccc2c(-c3ccc(C(=O)NCC4O[C@H](O[C@@H]5C(O)[C@H](O[C@@H]6C(O)[C@H](N)CC(N)[C@H]6O[C@H]6OC(CO)[C@@H](O)[C@H](O)C6N)O[C@@H]5CO)[C@H](N)C(O)[C@@H]4O)cc3C(=O)[O-])c3ccc(=[N+](C)C)cc-3oc2c1 (stereo partly drawn) = 6.57

We now examine a further compound.
Note pKd for the compound shown: NC[C@H]1O[C@H](O[C@H]2[C@H](O)[C@@H](O[C@H]3O[C@H](CO)[C@@H](O)[C@H](N)[C@H]3O)[C@H](N)C[C@@H]2N)[C@H](N)C[C@@H]1O [TOBRAMYCIN]
5.49

###

Here, each record is paired with measured pKd data.
target: Nucleic Acid; experiment: Dissociation constant for binding to mitochondrial 12S rRNA construct M3 was determined; assay type: nucleic-acid assay, Homo sapiens
Schema: pKd number; meaning minus log10 of the concentration expressed in molar units.

Recorded pKd, per entry:
- NC[C@H]1O[C@H](O[C@H]2[C@H](O)[C@@H](O[C@H]3O[C@H](CO)[C@@H](O)[C@H](N)[C@H]3O)[C@H](N)C[C@@H]2N)[C@H](N)C[C@@H]1O: 6.37
- CN(C)c1ccc2c(-c3ccc(C(=O)NCC4O[C@H](O[C@@H]5C(O)[C@H](O[C@@H]6C(O)[C@H](N)CC(N)[C@H]6O[C@H]6OC(CO)[C@@H](O)[C@H](O)C6N)O[C@@H]5CO)[C@H](N)C(O)[C@@H]4O)cc3C(=O)[O-])c3ccc(=[N+](C)C)cc-3oc2c1 (stereo not given in full): 6.59
- NC[C@H]1O[C@H](O[C@H]2[C@H](O)[C@@H](O[C@H]3O[C@H](CO)[C@@H](O)[C@H](N)[C@H]3O)[C@H](N)C[C@@H]2N)[C@H](O)[C@@H](O)[C@@H]1O: 5.68
- NC[C@@H]1O[C@H](O[C@H]2[C@@H](O)[C@H](O[C@@H]3[C@@H](O)[C@H](N)C[C@H](N)[C@H]3O[C@H]3O[C@H](CN)[C@@H](O)[C@H](O)[C@H]3N)O[C@@H]2CO)[C@H](N)[C@@H](O)[C@@H]1O: 6.92

Next, consider the following molecule.
For Nucleic Acid, give pKd of the listed molecule: NC[C@@H]1O[C@H](O[C@H]2[C@@H](O)[C@H](O[C@@H]3[C@@H](O)[C@H](N)C[C@H](N)[C@H]3O[C@H]3O[C@H](CO)[C@@H](O)[C@H](O)[C@H]3N)O[C@@H]2CO)[C@H](N)[C@@H](O)[C@@H]1O
6.36

###

biological target: Nucleic Acid; test: Dissociation constant for binding to mitochondrial 12S rRNA construct M4 was determined; format: nucleic-acid assay, Homo sapiens
pKd: −log10 of the molar value.
We use 6 as the dividing line for pKd: on or above the line is Satisfied, below is Not satisfied.

Look over these answered cases.
* NC[C@@H]1O[C@H](O[C@H]2[C@@H](O)[C@H](O[C@@H]3[C@@H](O)[C@H](N)C[C@H](N)[C@H]3O[C@H]3O[C@H](CN)[C@@H](O)[C@H](O)[C@H]3N)O[C@@H]2CO)[C@H](N)[C@@H](O)[C@@H]1O | Satisfied
* NC[C@H]1O[C@H](O[C@H]2[C@H](O)[C@@H](O[C@H]3O[C@H](CO)[C@@H](O)[C@H](N)[C@H]3O)[C@H](N)C[C@@H]2N)[C@H](N)C[C@@H]1O | Not satisfied
* NC[C@H]1O[C@H](O[C@H]2[C@H](O)[C@@H](O[C@H]3O[C@H](CO)[C@@H](O)[C@H](N)[C@H]3O)[C@H](N)C[C@@H]2N)[C@H](O)[C@@H](O)[C@@H]1O | Not satisfied

Query compound follows.
Item NC[C@@H]1O[C@H](O[C@H]2[C@@H](O)[C@H](O[C@@H]3[C@@H](O)[C@H](N)C[C@H](N)[C@H]3O[C@H]3O[C@H](CO)[C@@H](O)[C@H](O)[C@H]3N)O[C@@H]2CO)[C@H](N)[C@@H](O)[C@@H]1O with pKd of 6 or above?
Not satisfied
